Assay: Partition coefficient (logD7.4) measured using octanol and PBS at pH7.4
Type: physicochemical
Settings: pH 7.4, read-out: LogD7.4
Metric Name: logD
The answer should be a number; do not append a unit.

>>> quantitative_readout("c1cnc(Cc2cccc(-c3nn[nH]n3)c2)nc1")
-1.28
>>> quantitative_readout("O=C(O)Cc1ccc(Cn2cnc3ccccc32)cc1")
-1.13

query: Any idea what logD was measured for NC(=O)c1cccc(Cn2cccn2)c1 ?
result: 0.71

query: Report logD for N#Cc1cccc(Cn2cnc3ccccc32)c1 please.
result: 2.47

query: Entry N#Cc1cccc(Cc2ncccn2)c1 : reported logD = ?
result: 1.46

query: I would be grateful if you could share the reported logD for c1ccc(Cn2ccnc2)cc1 .
result: 1.78

Origin of measurements: ChEMBL document CHEMBL1136597
